Reference source for all entries: patent US20240409557A1

Attribute: pIC50
- targetOrSystem: 15-PGDH in A549 cells (Homo sapiens)
- Construct: endogenous in cells
- Sequence (P15428 whole entry): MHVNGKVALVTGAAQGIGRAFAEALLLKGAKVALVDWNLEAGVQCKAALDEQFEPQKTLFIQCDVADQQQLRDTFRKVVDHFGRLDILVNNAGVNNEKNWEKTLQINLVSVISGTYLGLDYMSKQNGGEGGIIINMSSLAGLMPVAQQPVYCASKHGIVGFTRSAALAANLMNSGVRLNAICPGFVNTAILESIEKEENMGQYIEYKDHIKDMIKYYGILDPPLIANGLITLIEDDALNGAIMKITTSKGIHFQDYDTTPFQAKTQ
- assayComment: A549 cellular 15-PGDH assay (PGE2 accumulation, HTRF)
- runConditions: interleukin-stimulated, inhibitor 24 hrs, PGE2 by competitive HTRF, read-out: A549 Cell Assay IC50
pIC50: −log10 of the molar value.
quantityName: pIC50

compound | testResult
Cn1cc2cc(-c3ccc4cc([C@]5(O)C[C@](C)(C#N)C5)sc4n3)cnc2n1 [Compound C63T] | 10.06
CO[C@H]1C[C@H]([C@H](O)c2cc3ccc(-c4cnc5nn(C)cc5c4)nc3s2)C1 (single isomer, unassigned) [Compound B88ST] | 9.30
Cn1cc2cc(-c3ccc4sc([C@]5(O)C[C@@H](C(F)F)C5)cc4n3)cnc2n1 [Compound C84C] | 7.88
Cn1cc2cc(-c3ncc4cc([C@@H](O)C5CC(F)(F)C5)sc4n3)cnc2n1 (single isomer, unassigned) [Compound B75S] | 7.90
Cc1c2ccc(-c3cnc4nn(C)cc4c3)nc2sc1[C@]1(O)C[C@@H](C(F)(F)F)C1 [Compound C78C] | 8.62
Cn1cc2cc(-c3ccc4cc([C@@H](O)C5CC5)sc4n3)cnc2n1 (single isomer, unassigned) [Compound B16S] | 8.02
O[C@@H](c1cc2ccc(-c3cnc4[nH]ncc4c3)nc2s1)C1CC(F)(F)C1 (single isomer, unassigned) [Compound B47R] | 9.44
C[C@H]1CC[C@]1(O)c1cc2ccc(-c3cnc4nn(C)cc4c3)nc2s1 (single isomer, unassigned) [Compound C64RS] | 8.49
Cn1cc2cc(-c3ccc4cc([C@]5(O)C[C@]6(CCO6)C5)sc4n3)cnc2n1 (single isomer, unassigned) [Compound C56C] | 9.74
O[C@H](c1cc2ccc(-c3cnc4[nH]ncc4c3)nc2s1)C1CC(F)(F)C1 (single isomer, unassigned) [Compound B47S] | 8.71
Cn1cc2cc(-c3ccc4nc([C@H](O)C5CC(F)(F)C5)sc4n3)cnc2n1 (single isomer, unassigned) [Compound B72R] | 10.32
[2H][C@](O)(c1cc2ccc(-c3cnc4nn(C)cc4c3)nc2s1)C1CCOCC1 (single isomer, unassigned) [Compound B66R] | 9.52
Cn1cc2cc(-c3ccc4ccc([C@@H](O)C5CCOCC5)cc4n3)cnc2n1 (single isomer, unassigned) | 6.52
OC1(c2cc3ccc(-c4cnc5[nH]nnc5c4)nc3s2)CC(F)(F)C1 | 8.80
Cn1cc2cc(-c3ccc4cc([C@]5(O)C[C@@H](C6CC6)C5)sc4n3)cnc2n1 (single isomer, unassigned) [Compound C62C] | 10.49
Cn1cc2cc(-c3ccc4cc(C5(O)CC6(COC6)C5)sc4n3)cnc2n1 | 9.34
Cn1cc2cc(-c3ccc4cc(C(O)C5COC5)sc4n3)cnc2n1 (stereo not drawn) | 8.97
Cn1cc2cc(-c3ccc4cc([C@@H](O)C5CCOCC5)sc4n3)cnc2n1 [Compound B15S] | 9.30
Cn1nnc2cc(-c3ccc4cc([C@H](O)C5CCOCC5)sc4n3)cnc21 (single isomer, unassigned) [Compound B41R] | 8.67
Cc1cn2ncc(-c3ccc4cc(C5(O)CC(F)(F)C5)sc4n3)cc2n1 | 8.51
CO[C@]1(C)C[C@@](O)(c2cc3cnc(-c4cnc5c(c4)nnn5C)nc3s2)C1 (single isomer, unassigned) [Compound C121C] | 7.62
O[C@]1(c2cc3cnc(-c4cnc5nccn5c4)nc3s2)C[C@H](C(F)(F)F)C1 [Compound C124C] | 7.80
CO[C@]1(C)C[C@@](O)(c2cc3ccc(-c4cnc5c(c4)nnn5C)nc3s2)C1 (single isomer, unassigned) [Compound C102C] | 8.60
CO[C@]1(C(F)(F)F)C[C@](O)(c2cc3ccc(-c4cnc5nn(C)cc5c4)nc3s2)C1 (single isomer, unassigned) [Compound C66T] | 10.65
O[C@@H](c1cc2ccc(-c3cnc4[nH]nnc4c3)nc2s1)C1CCOCC1 (single isomer, unassigned) [Compound B44R] | 8.58
Cn1cc2cc(-c3cc(C4CC4)c4cc(C(O)C5CCC5)sc4n3)cnc2n1 (single isomer, unassigned) | 9.04
O[C@H](c1cc2ccc(-c3ccc4nccnc4c3)nc2s1)C1CC(F)(F)C1 (single isomer, unassigned) [Compound B52S] | 7.93
